- targetOfAssay: human TLR9 (Homo sapiens, UniProt Q9NR96)
- Sequence (Q9NR96 26-1032): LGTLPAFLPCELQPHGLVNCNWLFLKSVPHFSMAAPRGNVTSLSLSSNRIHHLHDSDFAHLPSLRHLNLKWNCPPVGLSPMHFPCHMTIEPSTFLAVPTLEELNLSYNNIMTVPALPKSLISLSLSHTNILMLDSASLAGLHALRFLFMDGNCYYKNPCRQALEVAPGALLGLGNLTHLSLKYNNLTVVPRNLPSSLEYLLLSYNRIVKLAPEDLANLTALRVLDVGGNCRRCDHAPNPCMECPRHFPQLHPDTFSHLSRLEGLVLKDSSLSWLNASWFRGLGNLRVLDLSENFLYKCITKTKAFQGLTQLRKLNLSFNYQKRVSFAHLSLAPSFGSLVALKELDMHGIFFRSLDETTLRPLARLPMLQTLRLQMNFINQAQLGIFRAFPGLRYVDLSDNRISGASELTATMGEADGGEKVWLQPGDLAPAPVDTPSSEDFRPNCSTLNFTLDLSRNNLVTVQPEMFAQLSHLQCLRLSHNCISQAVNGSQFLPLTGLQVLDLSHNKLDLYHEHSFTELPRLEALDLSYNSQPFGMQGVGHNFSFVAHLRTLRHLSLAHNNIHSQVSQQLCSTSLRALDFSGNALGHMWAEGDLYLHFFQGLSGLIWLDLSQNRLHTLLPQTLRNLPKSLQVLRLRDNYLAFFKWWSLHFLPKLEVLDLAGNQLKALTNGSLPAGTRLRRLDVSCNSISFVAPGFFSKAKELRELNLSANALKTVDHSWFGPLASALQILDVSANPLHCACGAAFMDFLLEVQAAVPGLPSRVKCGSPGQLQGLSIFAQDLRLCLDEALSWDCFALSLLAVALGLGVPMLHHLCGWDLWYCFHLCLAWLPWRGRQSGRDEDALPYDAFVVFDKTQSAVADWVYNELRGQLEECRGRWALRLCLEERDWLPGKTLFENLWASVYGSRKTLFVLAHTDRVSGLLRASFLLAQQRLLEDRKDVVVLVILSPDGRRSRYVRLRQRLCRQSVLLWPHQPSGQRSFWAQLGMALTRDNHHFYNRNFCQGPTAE
- measurementNotes: HEK293-Blue-hTLR-9 cells assay (SEAP reporter, ODN2006 stimulation)
- experimentalParameters: HEK293-Blue-hTLR9 cells, ODN2006, 20 hrs
Exercise: state measured IC50 for each of the molecules provided.
Give the value, in units of nM, as a plain number.

IN: Recorded IC50 for C[C@H]1C[C@@H](N(C)Cc2ccc(N3CCNCC3)cc2)CN(c2ccc(C#N)c3ncccc23)C1 [Example 9] , please?
OUT: 95

IN: Can you share its IC50? I mean this molecule: C[C@H]1C[C@@H](NCc2ccc(N3CCNCC3)cc2)CN(c2ccc(C#N)c3ncccc23)C1 [Example 1]
OUT: 55

IN: What does the data say about its IC50? Entry: C[C@H]1C[C@@H](NCc2ccc(N3CCNCC3)cn2)CN(c2ccc(C#N)c3ncccc23)C1 [Example 5]
OUT: 68

IN: Endpoint output: IC50 of C[C@H]1C[C@@H](NCc2ccc(N3CCNCC3)cc2)CN(c2ccc(C#N)c3nccnc23)C1 [Example 3] . Value?
OUT: 77

IN: Given C[C@H]1C[C@@H](NCc2cnc(N3CCN[C@H](C)C3)nc2)CN(c2ccc(C#N)c3ncccc23)C1 [Example 28] , state its recorded IC50.
OUT: 48

IN: Which IC50 is listed for C[C@H]1C[C@@H](NCc2ccc(N3CCNCC3)nc2)CN(c2ccc(C#N)c3ncccc23)C1 [Example 10] ?
OUT: 68

IN: Name the reported IC50 value associated with the molecule C[C@H]1C[C@@H](NCc2ccc(N3CCC(N)C3)cc2)CN(c2ccc(C#N)c3ncccc23)C1 (some centres unmarked) [Example 13]
OUT: 163

IN: Given the molecule C[C@H]1C[C@@H](N2Cc3ccc(N4CCNCC4)cc3C2)CN(c2ccc(C#N)c3ncccc23)C1 [Example 12] , what is its reported IC50?
OUT: 73

IN: Quick one: IC50 for C[C@H]1C[C@@H](NCc2ccc(N3CCN(C)CC3)cn2)CN(c2ccc(C#N)c3ncsc23)C1 [Example 18] ?
OUT: 116

IN: Field request: IC50 | item: C[C@H]1C[C@@H](NCc2cnc(N3CCN[C@@H](C)C3)nc2)CN(c2ccc(C#N)c3ncccc23)C1 [Example 29]
OUT: 32

IN: Could you share which IC50 value was measured for C[C@H]1C[C@@H](NCc2ccc(N3CCN(C)CC3)cc2)CN(c2ccc(C#N)c3ncccc23)C1 [Example 7] ?
OUT: 69

IN: Given the entry C[C@H]1C[C@@H](NCc2ccc(C3CCNCC3)cc2)CN(c2ccc(C#N)c3ncccc23)C1 [Example 2] , report its measured IC50.
OUT: 75

IN: Which IC50 is reported for this molecule? Cc1cc(-c2ccc(CN[C@@H]3C[C@H](C)CN(c4ccc(C#N)c5ncccc45)C3)cc2)cc(C)n1 [Example 15]
OUT: 126

IN: I have this molecule here, C[C@H]1C[C@@H](NCc2ccc3c(n2)CCNC3)CN(c2ccc(C#N)c3ncccc23)C1 [Example 30] , and I need its recorded IC50.
OUT: 33

IN: Given the entry CC(N[C@@H]1C[C@H](C)CN(c2ccc(C#N)c3ncccc23)C1)c1ccc(N2CCNCC2)cc1 (some centres unmarked) [Example 26] , report its measured IC50.
OUT: 55

IN: Look up IC50: C[C@H]1C[C@@H](NCc2cccc(N3CCN(C)CC3)c2)CN(c2ccc(C#N)c3ncccc23)C1 [Example 6]
OUT: 70

IN: Would you kindly share the measured IC50 for C[C@H]1C[C@@H](NCc2ccc3c(c2)CCNC3)CN(c2ccc(C#N)c3ncccc23)C1 [Example 11] ?
OUT: 82

IN: I have this molecule here, C[C@H]1C[C@@H](NCc2cccc(N3CCNCC3)c2)CN(c2ccc(C#N)c3ncccc23)C1 [Example 8] , and I need its recorded IC50.
OUT: 88

IN: What value of IC50 has been recorded for this entry: C[C@H]1C[C@@H](NCc2ccc(N3CCNCC3)cc2)CN(c2ccc(Cl)c3ncccc23)C1 [Example 22]
OUT: 183

IN: # input molecule: C[C@H]1C[C@@H](N2CCc3cc(N4CCNCC4)ccc3C2)CN(c2ccc(C#N)c3ncccc23)C1 (relative stereo) [Example 24] ; wanted: its IC50
OUT: 70

IN: Given C[C@H]1C[C@@H](N2Cc3cc(N4CCNCC4)cnc3C2)CN(c2ccc(C#N)c3ncccc23)C1 [Example 23] , state its recorded IC50.
OUT: 92

IN: Which IC50 value belongs to C[C@H]1C[C@@H](N2Cc3ccccc3C2)CN(c2ccc(C#N)c3ncccc23)C1 [Example R2, reference compound] ?
OUT: 8660

IN: Field request: IC50 | item: C[C@H]1C[C@@H](NCc2ccc(N3CCNCC3)cc2)CN(c2ccc(C#N)n3nccc23)C1 [Example 21]
OUT: 94

IN: Name the reported IC50 value associated with the molecule C[C@H]1C[C@@H](NCc2ccccc2)CN(c2ccc(C#N)c3ncccc23)C1 [Example R1, reference compound]
OUT: 1870

IN: So what's the measured IC50 for this one? C[C@H]1C[C@@H](NCc2cnc(N3CCN(C)CC3)nc2)CN(c2ccc(C#N)c3ncccc23)C1 [Example 16]
OUT: 77

IN: For C[C@H]1C[C@@H](NCc2cnc(N3CCNCC3)cn2)CN(c2ccc(C#N)c3ncccc23)C1 [Example 31] , what is its reported IC50?
OUT: 47

IN: Which measured IC50 value corresponds to C[C@H]1C[C@@H](NCc2ncc(N3CCNCC3)cn2)CN(c2ccc(C#N)c3ncccc23)C1 [Example 25] ?
OUT: 61

IN: Any idea what IC50 was measured for C[C@H]1C[C@@H](NCc2ccc(N3CCNCC3)cc2F)CN(c2ccc(C#N)c3ncccc23)C1 [Example 4] ?
OUT: 94

IN: Can you share its IC50? I mean this molecule: C[C@H]1C[C@@H](NCc2cnc(N3CCNCC3)nc2)CN(c2ccc(C#N)c3ncccc23)C1 [Example 17]
OUT: 60
